Measured values drawn from patent US20160017016A1 for this set.

# tgt: human GLP-1 receptor (GLP-1R) (human, UniProt P43220 24-463)
# assay-protocol: cell-based or functional assay
*1 amine or outer side, *2 acyl side, *3 side chain or, on linkers, in order; H or OH if unused. Primed or numbered codes have the meaning given here. Where no end group is shown, it is not given here. Side-chain parts run from the residue outwards. [ ]: non-standard residue; d: D form. The star is where a group is joined. PEG4′ = 4 PEG units (K(PEGxpalm): Lys with x PEG units and palmitoyl at epsilon N, C-terminal (PEG)4); γGlu = O=C(O)[C@H](CCC(=O)[*:2])N[*:1]; Palmitoyl = CCCCCCCCCCCCCCCC(=O)*
metric-name: cAMP activity, GLP1 EC50 nM
Please give the number followed by its unit.

Worked examples follow.
> print(dat)
                                      binder                  metric.name  observed.result
 1  HSQGTFTSDYSKYLDSXRAQDFVQWLV (K(gE-palm) at 17; C-terminal PEG4) [g414]  cAMP activity, GLP1 EC50 nM           0.2 nM
 2  HSQGTFTSDYSKYLDSRRAQDFVQWLV (C-terminal 6-aminohexanoic acid (Ahx)) [g357]  cAMP activity, GLP1 EC50 nM           1.6 nM
 3  HGQGTFTSDYSKYLDSXRAQDFVQWLV (K(gE-palm) at 17; C-terminal PEG3) [g690]  cAMP activity, GLP1 EC50 nM          0.06 nM
 4  HSEGTFTSDYSKYLDSKRAQDFVQWLV[PEG4′] (not fully specified (residue 17); printed as HSEGTFTSDYSKYLDSB1RAQDFVQWLVZ4) [g433]  cAMP activity, GLP1 EC50 nM         0.004 nM
 5  HGQGTFTSDYSKYLDSXRAQDFVQWLV (K(gE-palm) at 17; C-terminal PEG2) [g691]  cAMP activity, GLP1 EC50 nM          0.05 nM
 6  HSQGTFTSDYSKYLDSRRAXDFVQWLV (K(PEG4-palm) at 20; C-terminal PEG4) [g457]  cAMP activity, GLP1 EC50 nM          0.03 nM
 7  HSQGTFTSDYSKYLDEK([γGlu-Palmitoyl])RAQDFVQWLV[PEG4′] [g810]  cAMP activity, GLP1 EC50 nM           0.5 nM
 8  HGQGTFTSDYSKYLDSK([γGlu-Palmitoyl])RAEDFVQWLV[PEG4′] [g693]  cAMP activity, GLP1 EC50 nM           0.1 nM
 9  HSQGTFTSDYSKYLDSRK([γGlu-Palmitoyl])AQDFVQWLE[PEG4′] [g454]  cAMP activity, GLP1 EC50 nM           0.5 nM
10  HSQGTFTSDYSKYLDK([PEG4′-Palmitoyl])SRARDFVAWLV[PEG4′] [g972]  cAMP activity, GLP1 EC50 nM          0.03 nM

Prompt line: Fill in: cAMP activity, GLP1 EC50 nM of HSQGTFTSDYSKYLDSXRAQDFVQWLV (not fully specified; K(PEG4-palm) at 17; C-terminal PEG8) [g439] is ___
Response line: 0.008 nM

Prompt line: Fill in: cAMP activity, GLP1 EC50 nM of HGQGTFTSDYSKYK([γGlu-Palmitoyl])DSRRAQDFVQWLV[PEG4′] [g514] is ___
Response line: 0.1 nM
